System: PC-3 PIP/flu tumor-bearing mice
method_description: Biodistribution study in PC-3 PIP/flu tumor-bearing mice
Assay type: in vivo, athymic nude Balb/c mice
assay_context: 4 h p.i., PC-3 PIP/flu tumor-bearing mice
readout_type: Stomach (% IA/g)
Give the number; % IA/g is assumed, so skip it.

molecule	readout_type	observed_value
CC(C)Cc1ccc(C(C)C(=O)NC(CC(=O)NCCCCC(NC(=O)CN2CCN(CC(=O)O)CCN(CC(=O)O)CCN(CC(=O)O)CC2)C(=O)NCC2CCC(C(=O)NC(Cc3ccc4ccccc4c3)C(=O)NCCCCC(NC(=O)NC(CCC(=O)O)C(=O)O)C(=O)O)CC2)C(=O)O)cc1 (stereo not drawn) [^177Lu-Ibu-Dβ-PSMA, metal not drawn]	Stomach	1.51
CC(C)Cc1ccc(C(C)C(=O)NCC[C@H](NC(=O)CN2CCN(CC(=O)O)CCN(CC(=O)O)CCN(CC(=O)O)CC2)C(=O)NCC2CCC(C(=O)N[C@@H](Cc3ccc4ccccc4c3)C(=O)NCCCC[C@H](NC(=O)N[C@@H](CCC(=O)O)C(=O)O)C(=O)O)CC2)cc1 (stereo partly drawn) [^177Lu-Ibu-sPSMA, metal not drawn]	Stomach	1.3

Query molecule follows.
For the molecule CC(C)Cc1ccc(C(C)C(=O)NC(CC(N)=O)C(=O)NCCCCC(NC(=O)CN2CCN(CC(=O)O)CCN(CC(=O)O)CCN(CC(=O)O)CC2)C(=O)NCC2CCC(C(=O)NC(Cc3ccc4ccccc4c3)C(=O)NCCCCC(NC(=O)NC(CCC(=O)O)C(=O)O)C(=O)O)CC2)cc1 (stereo not drawn) [^177Lu-Ibu-N-PSMA, metal not drawn] , what Stomach is on record?
0.51
